B1: TCEB3B (parent)
chain: STTALGDKQRKANESKGTRESWDS

variants of: B1; test: protein stability index of a GFP-peptide fusion (GPS, HEK-293T) (PSI 1-6); higher = more stable; settings: c terminus: a fixed tail appended;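 also: lentivirally expressed fusions sorted by FACS into six bins by GFP to DsRed ratio, PSI derived from sequencing read proportions per bin multiplied by bin number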
Parameter threshold = 4. Response is TRUE when protein stability index meets or exceeds it, else FALSE.

Reference set, count: 10
R19E ... TRUE
D23I ... FALSE
K11E ... TRUE
T18I ... FALSE
D7I ... FALSE
E14T ... FALSE
S15G ... TRUE
E20Y ... TRUE
Q9T ... TRUE
T2Q ... FALSE

Check the entry `S15D` : does protein stability index equal or exceed 4?
TRUE

Check the entry `W22D` : does protein stability index equal or exceed 4?
TRUE

Check the entry `K8Y` : does protein stability index equal or exceed 4?
FALSE

Check the entry `D7E` : does protein stability index equal or exceed 4?
TRUE

Check the entry `S1R` : does protein stability index equal or exceed 4?
FALSE

Check the entry `N13R` : does protein stability index equal or exceed 4?
FALSE

Check the entry `K8G` : does protein stability index equal or exceed 4?
TRUE

Where these numbers come from: the supplement of paper PMC10567573
